assay: in vitro; conditions: human
Rule: measured CC50 at 4 days below 6 µM gets Criterion met; anything equal to or greater than 6 µM gets Criterion not met.

Below, 4 compounds whose answers are already recorded.
INSERT INTO assay_data (compound, cat) VALUES
  ('COc1cc(OC)cc(-c2cnc3c(c2)c(C#Cc2cccnc2)cn3C)c1 [Compound 7a]', 'Criterion not met'),
  ('COCCNC(=O)c1cccc(-c2cnc3[nH]cc(C#Cc4cccnc4)c3c2)c1 [Compound 8h]', 'Criterion not met'),
  ('COc1cc(-c2cnc3[nH]cc(C#Cc4cccnc4)c3c2)cc(OC)c1OC [Compound 4e]', 'Criterion met'),
  ('COc1cc(OC)cc(-c2cnc3c(c2)c(C#Cc2cccnc2)cn3CC(C)C)c1 [Compound 7c]', 'Criterion not met');

# check: CC50 at 4 days < 6 µM for COc1ccc(-c2cnc3[nH]cc(C#Cc4cccnc4)c3c2)cc1 [Compound 4a] Criterion met

Hello, I'm reviewing records and need to know if CC50 at 4 days of COc1cc(OC)cc(-c2cnc3c(c2)c(C#Cc2cccnc2)cn3Cc2ccccc2)c1 [Compound 7d] is below 6 µM. Could you check? Criterion not met

Record NC(=O)c1ncn([C@@H]2O[C@H](CO)[C@@H](O)[C@H]2O)n1 [Ribavirin, reference compound] : is its CC50 at 4 days strictly below 6 µM? Criterion not met

Problem: For the compound COc1cc(OC)cc(-c2cnc3[nH]cc(C#Cc4cccnc4)c3c2)c1 [Compound 4d] , is CC50 at 4 days under 6 µM? Criterion not met

Strictly below 6 µM in CC50 at 4 days? O=C(c1cccc(-c2cnc3[nH]cc(C#Cc4cccnc4)c3c2)c1)N1CCCC1 [Compound 8L] Criterion met

Lab note: CC50 at 4 days threshold 6 µM. Does this compound come in strictly under it? Cc1cncc(C#Cc2c[nH]c3ncc(-c4cccc(C(=O)NC5CC5)c4)cc23)c1 [Compound 9c] Criterion not met

Origin of measurements: paper PMC9643853
